molecular target: Kappa-type opioid receptor (Homo sapiens, UniProt P41145); format: functional
Sequence (P41145 whole entry): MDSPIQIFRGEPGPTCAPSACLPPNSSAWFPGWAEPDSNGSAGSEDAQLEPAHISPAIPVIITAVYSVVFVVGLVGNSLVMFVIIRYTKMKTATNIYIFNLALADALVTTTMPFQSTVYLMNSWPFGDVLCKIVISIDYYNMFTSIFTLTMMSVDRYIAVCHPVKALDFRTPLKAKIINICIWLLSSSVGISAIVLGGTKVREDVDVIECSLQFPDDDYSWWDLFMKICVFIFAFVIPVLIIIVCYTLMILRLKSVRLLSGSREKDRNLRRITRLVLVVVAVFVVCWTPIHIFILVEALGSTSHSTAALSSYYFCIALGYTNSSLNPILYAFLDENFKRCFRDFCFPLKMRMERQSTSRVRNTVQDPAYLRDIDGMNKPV
observation_type: IC50

# input If you can, please state the reported IC50 value of `Cc1ccccc1N=Nc1ccc(O)c2ncccc12` .
# output > 32 µM

Let us move to another entry and its IC50.
# input If you can, please state the reported IC50 value of `COCc1cc(O)nc(Nc2nc3ccc(C)cc3o2)n1` .
# output > 32 µM

* * *

assay: microbe, parasite or virus in culture; type: functional; conditions: Mycobacterium tuberculosis
The source made the active and inactive calls.
observation_type: CC50

Recorded results for 4 compounds are shown here.
# input If you can, please state the reported CC50 value of `C=CCc1c(C)nc(C)nc1N/N=C/c1ccccc1O` .
# output > 40 µM (active)

# input Moving on to the next compound: `Cn1cnc([N+](=O)[O-])c1Sc1ccc(Br)cc1`
# output 32.4 µM (active)

# input Moving on to the next compound: O=[N+]([O-])c1ccc(C2CC(c3ccccc3)=Nc3ccccc3S2)cc1 (stereo not given)
# output 37.4 µM (active)

# input Moving on to the next compound: `COc1ccc(-c2cc3ccccc3oc2=O)cc1NC(=O)c1ccc([N+](=O)[O-])o1`
# output > 40 µM (active)

Let us move to another entry and its CC50.
# input If you can, please state the reported CC50 value of `CCc1ccc(-c2nn(-c3ccccc3)cc2CSC(=N)N)cc1` .
# output 13.7 µM (active)

* * *

biological target: Replicative DNA helicase DnaB (Mycobacterium tuberculosis, UniProt P9WMR3); assay: DnaB intein splicing inhibitors, dose response, biochemical, cell-free fluorescence (AID 449749); format: functional
The source made the active and inactive calls.
Would you mind answering with one of these outcomes? t for active, f for inactive

# input Recorded test outcome, item `Clc1ccc(Sc2oc(/C=N/n3cnnc3)cc2Br)cc1`
# output t

# input Moving on to the next molecule: `Cc1nnc(N/N=C\c2ccc(-c3ccccc3[N+](=O)[O-])o2)n1N`
# output t

# input Moving on to the next molecule: Cc1ccc(C2=NN(C(=O)CCl)C(c3cccs3)C2)o1 (stereo unspecified)
# output t

# input Moving on to the next molecule: `COc1ccccc1-c1cc(C(F)(F)F)nc(S(C)(=O)=O)n1`
# output t

# input Moving on to the next molecule: `Nc1c(N2CCCC2)cc(Cl)c2nonc12`
# output t

Further cases:
# input Recorded test outcome, item `CN1CCc2nc(SCc3ccc(Cl)cc3)c(C#N)c(-c3cccs3)c2C1`
# output f

# input Moving on to the next molecule: `O=C1C=Cc2ccccc2C1=O`
# output t

# input Moving on to the next molecule: `CCN=C(S)N=Nc1c(O)[nH]c2ccc([N+](=O)[O-])cc12`
# output f

# input Moving on to the next molecule: `N#CC1(NC(=O)COC(=O)c2cc(O)c3ccccc3c2O)CCCCC1`
# output t

# input Moving on to the next molecule: `Oc1ccc(/N=C/c2ccc(OCc3ccccc3)cc2)cc1`
# output f

# input Moving on to the next molecule: `CC1=NNC(=O)/C1=C\c1cn(-c2ccccc2)nc1-c1cccs1`
# output t

* * *

target: UniProt:Q9Y2T6; assay: GPR55 antagonists blocking LPI-driven arrestin recruitment, primary screen, imaging, U2OS, beta-arrestin-GFP, LPI agonist (AID 2013); assay type: functional;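 further: antagonist potency measured as reduced agonist-driven arrestin aggregation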
Sequence (Q9Y2T6 whole entry): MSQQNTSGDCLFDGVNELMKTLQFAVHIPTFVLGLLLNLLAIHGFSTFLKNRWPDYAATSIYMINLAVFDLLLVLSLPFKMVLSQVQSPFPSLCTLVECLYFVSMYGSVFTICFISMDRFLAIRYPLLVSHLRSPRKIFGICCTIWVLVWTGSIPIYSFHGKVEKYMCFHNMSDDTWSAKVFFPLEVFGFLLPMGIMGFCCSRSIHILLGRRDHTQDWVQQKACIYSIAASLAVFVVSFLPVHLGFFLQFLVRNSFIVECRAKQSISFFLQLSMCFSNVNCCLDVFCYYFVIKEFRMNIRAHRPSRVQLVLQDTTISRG
Active and inactive are the calls of the source.
So I've got a bunch of compounds here, and I need their IC50 values.

Recorded results for 3 compounds are shown here.
# input If you can, please state the reported IC50 value of `O=C(N1CCC(n2nc(-c3ccccc3)oc2=O)CC1)C1(c2ccc(Cl)cc2)CC1` .
# output 680 nM (active)

# input Moving on to the next compound: `COc1ccc(OC)c(N2C(=O)NC(=O)/C(=C/c3c(C)[nH]c4ccccc34)C2=O)c1`
# output < 500 nM (active)

# input Moving on to the next compound: `COc1ccc(CN2C(=O)NC(=O)/C(=C\c3ccco3)C2=O)cc1`
# output 3340 nM (active)

Let us move to another entry and its IC50.
# input If you can, please state the reported IC50 value of `COc1ccc(N2C(=O)NC(=O)/C(=C\c3cn(CC(=O)N4CCOCC4)c4ccccc34)C2=O)c(OC)c1` .
# output 1590 nM (active)
